assayMethodText: Plasma PK of brensocatib, BID vs QD oral dosing, Sprague Dawley rats
Type: in vivo
assayConditions: both sexes, Sprague-Dawley, rat, po, 2 mg/kg/day, SD rats, oral BID, 2 mg/kg/day, evening dose, read-out: t1/2, PM dose (converted)
propertyName: half-life
Your answer should be a number followed by the unit of measure.

## Task What measured half-life goes with Cn1c(=O)oc2ccc(-c3ccc(C[C@@H](C#N)NC(=O)[C@@H]4CNCCCO4)cc3)cc21 ?
## Result 7.42 h

====

assayMethodText: Plasma PK of brensocatib, BID vs QD oral dosing, C57BL/6 mice
Type: in vivo
assayConditions: both sexes, mouse, C57BL/6 mice, oral QD, 3 mg/kg/day, first 24 h, read-out: AUC0–24h
propertyName: AUC(0-t) (ng·h/mL)
Respond numerically; units are ng·h/mL and should not be typed.

## Task What measured AUC(0-t) goes with Cn1c(=O)oc2ccc(-c3ccc(C[C@@H](C#N)NC(=O)[C@@H]4CNCCCO4)cc3)cc21 [brensocatib] ?
## Result 2840

====

assayMethodText: Plasma PK of brensocatib, BID vs QD oral dosing, Wistar rats
Format: in vivo
assayConditions: both sexes, Wistar, rat, po, 0.2 mg/kg/day, oral BID, 0.2 mg/kg/day, morning dose, read-out: t1/2, AM dose (converted)
Procedure: A dose frequency study was performed in male and female mice (C57BL/6 & BALB/c) and in male and female rats (Sprague Dawley & Wistar) investigating twice daily (BID) versus once daily (QD) brensocatib administration. Briefly, animals were weighed and randomized into different treatment groups. […] For sparse PK analysis via LC-MS/MS, plasma was collected from animals during the first 24 h of dosing at prescribed timepoints. […] See section Quantification of Plasma Brensocatib Concentrations for details. […]
propertyName: half-life (h)
Respond numerically; units are h and should not be typed.

## Task What measured half-life goes with Cn1c(=O)oc2ccc(-c3ccc(C[C@@H](C#N)NC(=O)[C@@H]4CNCCCO4)cc3)cc21 ?
## Result 5.48

====

assayMethodText: Plasma PK of brensocatib, BID vs QD oral dosing, C57BL/6 mice
Format: in vivo
assayConditions: both sexes, C57BL/6, mouse, po, 30 mg/kg/day, C57BL/6 mice, oral QD, 30 mg/kg/day, read-out: t1/2, AM dose (converted)
Experimental: A dose frequency study was performed in male and female mice (C57BL/6 & BALB/c) and in male and female rats (Sprague Dawley & Wistar) investigating twice daily (BID) versus once daily (QD) brensocatib administration. Briefly, animals were weighed and randomized into different treatment groups. […] For sparse PK analysis via LC-MS/MS, plasma was collected from animals during the first 24 h of dosing at prescribed timepoints. […] See section Quantification of Plasma Brensocatib Concentrations for details. […]
propertyName: half-life (min)
Respond numerically; units are min and should not be typed.

## Task What measured half-life goes with Cn1c(=O)oc2ccc(-c3ccc(C[C@@H](C#N)NC(=O)[C@@H]4CNCCCO4)cc3)cc21 [brensocatib] ?
## Result 181

====

assayMethodText: Plasma PK of brensocatib, BID vs QD oral dosing, Wistar rats
Format: in vivo
assayConditions: both sexes, Wistar, rat, po, 2 mg/kg/day, oral BID, 2 mg/kg/day, evening dose, read-out: t1/2, PM dose (converted)
propertyName: half-life (h)
Respond numerically; units are h and should not be typed.

## Task What measured half-life goes with Cn1c(=O)oc2ccc(-c3ccc(C[C@@H](C#N)NC(=O)[C@@H]4CNCCCO4)cc3)cc21 ?
## Result 4.99
